Test system: alpha 4 beta 7-positive cells
Assay: Intraperitoneal Delayed Type Hypersensitivity (IP-DTH) Response
Assay type: in vivo, mice
Details: Mus musculus, sc, 48 h, 30 mg/kg sc bid × 2; peritoneal cells 48 h after antigen challenge; read-out: % Decrease in recruited α4β7 + cells
# Lookup of reported inhibition in vivo at 30 mg/kg keyed by entry
ENDPOINT: inhibition in vivo at 30 mg/kg (%)

1) COc1cnn(CC(N)=O)c(=O)c1-c1ccc(C[C@H](NC(=O)c2c(Cl)cccc2Cl)C(=O)O)cc1 [Cpd 5] = 53.4
2) COc1cnn(CC(=O)O)c(=O)c1-c1ccc(C[C@H](NC(=O)c2c(Cl)cccc2Cl)C(=O)O)cc1 [Cpd 11] = 70.5
3) COc1cnn(CCN2CCOCC2)c(=O)c1-c1ccc(C[C@H](NC(=O)c2c(Cl)cccc2Cl)C(=O)O)cc1 [Cpd 10] = 56.3
4) COc1cnn(CCO)c(=O)c1-c1ccc(C[C@H](NC(=O)c2c(Cl)cccc2Cl)C(=O)O)cc1 [Cpd 15] = 10.4

====

Molecular target: human α4β7 integrin (Homo sapiens, UniProt P13612+P26010)
Construct: expressed in transfected cells; host or cells: K562 cells, stably transfected
Sequence (P13612 34-1032): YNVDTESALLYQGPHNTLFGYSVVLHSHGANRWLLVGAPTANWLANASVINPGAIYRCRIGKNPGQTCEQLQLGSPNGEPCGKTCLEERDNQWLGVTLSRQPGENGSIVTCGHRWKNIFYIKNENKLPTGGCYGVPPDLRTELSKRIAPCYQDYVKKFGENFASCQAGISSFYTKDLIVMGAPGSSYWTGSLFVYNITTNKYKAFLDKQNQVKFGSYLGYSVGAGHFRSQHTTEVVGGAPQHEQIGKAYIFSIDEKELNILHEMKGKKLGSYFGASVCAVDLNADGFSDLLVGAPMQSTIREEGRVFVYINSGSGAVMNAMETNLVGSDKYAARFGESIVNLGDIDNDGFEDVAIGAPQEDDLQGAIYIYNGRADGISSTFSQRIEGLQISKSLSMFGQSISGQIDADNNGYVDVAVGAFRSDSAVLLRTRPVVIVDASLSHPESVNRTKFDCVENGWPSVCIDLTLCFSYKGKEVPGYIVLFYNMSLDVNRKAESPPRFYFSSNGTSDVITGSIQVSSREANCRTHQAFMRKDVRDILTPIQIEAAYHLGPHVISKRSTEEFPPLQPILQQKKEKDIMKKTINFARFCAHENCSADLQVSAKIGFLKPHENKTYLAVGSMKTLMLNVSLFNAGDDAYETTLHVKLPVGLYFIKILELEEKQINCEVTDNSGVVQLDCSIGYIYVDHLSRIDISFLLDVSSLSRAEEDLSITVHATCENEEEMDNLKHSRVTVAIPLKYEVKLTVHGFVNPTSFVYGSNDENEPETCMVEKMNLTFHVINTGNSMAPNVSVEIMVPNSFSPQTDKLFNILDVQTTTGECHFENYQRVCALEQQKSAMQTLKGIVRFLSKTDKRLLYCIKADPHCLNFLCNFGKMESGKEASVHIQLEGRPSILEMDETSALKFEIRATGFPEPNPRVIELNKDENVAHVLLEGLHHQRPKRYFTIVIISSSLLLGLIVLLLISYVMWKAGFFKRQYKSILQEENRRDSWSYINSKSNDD
Sequence (P26010 20-798): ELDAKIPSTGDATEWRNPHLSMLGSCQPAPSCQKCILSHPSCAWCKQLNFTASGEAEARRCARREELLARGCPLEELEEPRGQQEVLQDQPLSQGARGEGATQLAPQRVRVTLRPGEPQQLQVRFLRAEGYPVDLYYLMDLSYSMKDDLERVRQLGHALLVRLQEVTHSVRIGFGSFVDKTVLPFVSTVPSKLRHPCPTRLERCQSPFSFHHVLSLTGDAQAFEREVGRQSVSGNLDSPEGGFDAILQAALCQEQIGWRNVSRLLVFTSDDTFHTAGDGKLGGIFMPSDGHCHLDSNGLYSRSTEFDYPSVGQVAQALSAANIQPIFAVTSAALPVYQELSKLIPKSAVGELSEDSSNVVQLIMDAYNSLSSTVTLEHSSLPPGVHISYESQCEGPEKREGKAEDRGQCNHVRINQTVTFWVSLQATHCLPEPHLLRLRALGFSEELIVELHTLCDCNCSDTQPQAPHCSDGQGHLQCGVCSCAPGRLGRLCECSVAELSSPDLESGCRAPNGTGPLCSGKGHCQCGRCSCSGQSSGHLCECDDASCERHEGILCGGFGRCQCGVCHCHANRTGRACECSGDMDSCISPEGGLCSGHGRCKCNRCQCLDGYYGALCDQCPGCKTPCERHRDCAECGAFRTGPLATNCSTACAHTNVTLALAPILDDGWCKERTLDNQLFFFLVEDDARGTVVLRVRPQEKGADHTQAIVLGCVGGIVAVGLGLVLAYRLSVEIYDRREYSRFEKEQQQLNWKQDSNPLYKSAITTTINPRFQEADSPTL
Experiment: α4β7-K562 Cell Adhesion Assay (α4β7 Mediated Adhesion/MAdCAM-1)
Assay type: cell-based
Conditions: α4β7-K562 cell adhesion to hMAdCAM-1; read-out: α4β7 IC50
pIC50: −log10 of the molar value.
ENDPOINT: pIC50

1) COc1cnn(C)c(=O)c1-c1ccc(CC(NC(=O)C(C(C)C)n2c(C)ccc2C)C(=O)O)cc1 (centres unmarked) [Cpd 214] = 7.64
2) COc1cnn(C)c(=O)c1-c1ccc(C[C@H](NC(=O)OC(C)(C)C)C(=O)O)cc1 = 6.09
3) COc1cnn(C)c(=O)c1-c1ccc(C[C@H](NC(=O)[C@H](NC(=O)OC(C)(C)C)C(C)C)C(=O)O)cc1 = 7.41
4) COc1cnn(C2CCCCC2)c(=O)c1-c1ccc(C[C@H](NC(=O)c2c(Cl)cccc2Cl)C(=O)O)cc1 = 6.33
5) COc1cnn(C)c(=O)c1-c1ccc(C[C@H](NC(=O)OCC(C)(C)C)C(=O)O)cc1 = 6.27
6) COc1cnn(C)c(=O)c1-c1ccc(C[C@H](NC(=O)OCC(C)C)C(=O)O)cc1 = 6.23
7) COc1cnn(C)c(=O)c1-c1ccc(C[C@H](NC(=O)c2cc(=O)[nH]c(=O)[nH]2)C(=O)O)cc1 = 6.37
8) COc1cnn(C)c(=O)c1-c1ccc(C[C@H](NC(=O)OCc2c(C)cc(C)cc2C)C(=O)O)cc1 = 5.75
9) O=C(N[C@@H](Cc1ccc(-c2c(OC3CCCC3)cnn(CCO)c2=O)cc1)C(=O)O)c1c(Cl)cccc1Cl = 7.92
10) COc1cnn(C)c(=O)c1-c1ccc(C[C@H](NC(=O)[C@H](O)C(C)C)C(=O)O)cc1 = 6.85
11) CNC(C(=O)NC(Cc1ccc(-c2c(OC)cnn(C)c2=O)cc1)C(=O)O)C(C)C (single isomer, unassigned) [Cpd 54] = 7.77
12) COc1cnn(C)c(=O)c1-c1ccc(C[C@H](NC(=O)C2(C(=O)OC(C)(C)C)CCOCC2)C(=O)O)cc1 = 6.07
13) O=C(N[C@@H](Cc1ccc(-c2c(OCCN3CCOCC3)cnn(CCO)c2=O)cc1)C(=O)O)c1c(Cl)cccc1Cl = 8.52
14) COc1cn[nH]c(=O)c1-c1ccc(C[C@H](NC(=O)c2c(Cl)cccc2Cl)C(=O)O)cc1 = 7.39
15) COc1cnn(CCN2CCOCC2)c(=O)c1-c1ccc(C[C@H](NC(=O)[C@H](NC(C)C)C(C)C)C(=O)O)cc1 = 6.14
16) CCn1ncc(N2CCOCC2)c(-c2ccc(C[C@H](NC(=O)c3c(Cl)cccc3Cl)C(=O)O)cc2)c1=O = 8.22
17) COc1cnn(C)c(=O)c1-c1ccc(C[C@H](NC(=O)[C@@H](NC2CCCCC2)C(C)C)C(=O)O)cc1 = 6.03
18) C=CCNc1cnn(CC(C)=O)c(=O)c1-c1ccc(C[C@H](NC(=O)c2c(Cl)cccc2Cl)C(=O)O)cc1 = 8.05
19) COc1cnn(C)c(=O)c1-c1ccc(C[C@H](NC(=O)C23CCC(CC2)CN3C)C(=O)O)cc1 = 6.78
20) COc1cnn(C)c(=O)c1-c1ccc(C[C@H](NC(=O)c2ccc(CO)cc2)C(=O)O)cc1 = 6.29
